Molecular target: PTK2 (FAK) (Homo sapiens)
Sequence (Q05397 whole entry): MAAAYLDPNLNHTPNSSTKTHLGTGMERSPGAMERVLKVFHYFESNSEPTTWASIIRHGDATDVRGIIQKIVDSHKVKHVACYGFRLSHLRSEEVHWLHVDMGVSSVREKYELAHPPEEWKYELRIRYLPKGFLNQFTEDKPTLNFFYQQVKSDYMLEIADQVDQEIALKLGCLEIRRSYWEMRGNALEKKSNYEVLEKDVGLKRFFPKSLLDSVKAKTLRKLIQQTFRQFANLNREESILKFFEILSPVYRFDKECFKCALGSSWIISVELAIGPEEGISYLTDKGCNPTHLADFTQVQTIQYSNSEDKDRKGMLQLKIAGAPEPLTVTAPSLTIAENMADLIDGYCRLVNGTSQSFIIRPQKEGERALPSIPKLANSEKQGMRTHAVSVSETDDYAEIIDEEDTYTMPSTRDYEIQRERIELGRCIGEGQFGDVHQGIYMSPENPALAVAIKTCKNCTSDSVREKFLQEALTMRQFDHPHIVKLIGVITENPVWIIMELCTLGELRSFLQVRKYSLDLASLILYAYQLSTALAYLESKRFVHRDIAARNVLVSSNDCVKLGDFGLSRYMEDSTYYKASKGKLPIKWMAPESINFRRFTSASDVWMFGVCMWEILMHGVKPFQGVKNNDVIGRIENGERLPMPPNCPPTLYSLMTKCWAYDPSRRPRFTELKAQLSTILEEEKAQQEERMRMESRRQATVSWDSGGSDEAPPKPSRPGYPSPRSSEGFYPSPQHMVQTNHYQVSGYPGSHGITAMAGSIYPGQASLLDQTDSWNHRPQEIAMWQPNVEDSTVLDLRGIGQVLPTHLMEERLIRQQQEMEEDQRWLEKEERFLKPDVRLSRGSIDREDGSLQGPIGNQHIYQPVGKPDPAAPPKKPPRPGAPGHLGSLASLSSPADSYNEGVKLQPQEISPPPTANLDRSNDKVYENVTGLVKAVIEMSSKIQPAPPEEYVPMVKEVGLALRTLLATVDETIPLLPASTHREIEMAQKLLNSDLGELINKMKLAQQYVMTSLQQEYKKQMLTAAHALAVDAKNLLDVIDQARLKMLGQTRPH
Assay: Z'-LYTE SelectScreen biochemical kinase assay PTK2 (FAK)
Settings: read-out: % Inhibition mean PTK2 (FAK)
Would you kindly list inhibition at 10 µM for each of these compounds?
Answers are plain numbers, in %.

compound | inhibition at 10 µM [%]
CCn1ncc2c1CCC(Nc1nc3c(-c4ccc(F)cc4)cccn3n1)C2 (stereo not drawn) | 8
CCn1ncc2c1CCC(Nc1nc3c(-c4ccc(F)cc4C)cccn3n1)C2 (stereo not drawn) | 26
Cc1cc(F)ccc1-c1cccn2nc(NC3CCc4c(cnn4CC(C)C)C3)nc12 (stereo not drawn) | 20
Cc1cc(F)ccc1-c1cccn2nc(NC3CCc4c(cnn4C)C3)nc12 (stereo not drawn) | 13
Cc1cc(F)ccc1-c1cccn2nc(Nc3ccc4c(cnn4C)c3)nc12 | 7

For the 2 compounds below, give their inhibition at 10 µM values.
1. CCn1nnc2c1CCC(Nc1nc3c(-c4ccc(F)cc4C)cccn3n1)C2 (stereo not drawn)
2. CCn1ncc2c1CC[C@@H](Nc1nc3c(-c4ccc(F)c(Cl)c4)cccn3n1)C2

a:
27
16

Need inhibition at 10 µM for each of these compounds.
1. CCn1ncc2c1CCC(Nc1nc3c(-c4ccccc4C)cccn3n1)C2 (stereo not drawn)
2. CCn1ncc2c1CCC(Nc1nc3c(-c4cncc(Cl)c4)cccn3n1)C2 (stereo not drawn)

a:
1: 15; 2: 25
